Assignment: determine reported % Phosphatase Activity (compared to DMSO) PRL-3 for the given molecules.
testSystem: recombinant PRL-3 (Homo sapiens, UniProt O75365)
Construct: 6xHis (N, cleaved yes); made in house; host or cells: E. coli One Shot BL21 Star
Sequence (O75365 whole entry): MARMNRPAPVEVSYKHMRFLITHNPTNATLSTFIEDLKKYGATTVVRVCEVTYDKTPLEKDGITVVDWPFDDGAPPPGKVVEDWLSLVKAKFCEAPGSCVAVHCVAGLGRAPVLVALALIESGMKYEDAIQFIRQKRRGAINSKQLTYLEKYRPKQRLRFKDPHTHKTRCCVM
method: In vitro phosphatase assay (DiFMUP hydrolysis), PRL-3; note: test concentration or dose not given here
Assay type: biochemical
runParameters: FDA-approved drug screen; compared to DMSO
The figure you give is taken to be in %; do not add the unit.

% Phosphatase Activity (compared to DMSO) PRL-3 reported for this molecule CC(=O)Oc1ccc(C(c2ccc(OC(C)=O)cc2)c2ccccn2)cc1 [Bisacodyl] : 66

% Phosphatase Activity (compared to DMSO) PRL-3 reported for this molecule NC(=O)c1ncn([C@@H]2O[C@H](CO)[C@@H](O)[C@H]2O)c1O [Mizoribine] : 85

% Phosphatase Activity (compared to DMSO) PRL-3 reported for this molecule Cc1cnc(NC(=O)C2=C(O)c3ccccc3S(=O)(=O)N2C)s1 [Meloxicam] : 83

% Phosphatase Activity (compared to DMSO) PRL-3 reported for this molecule COc1ccnc(C[S+]([O-])c2nc3ccc(OC(F)F)cc3[nH]2)c1OC (stereo not shown) [Pantoprazole sodium] : 88

% Phosphatase Activity (compared to DMSO) PRL-3 reported for this molecule CC(C)C(=O)Nc1ccc([N+](=O)[O-])c(C(F)(F)F)c1 [Flutamide] : 77

% Phosphatase Activity (compared to DMSO) PRL-3 reported for this molecule CC(C(=O)O)c1ccc(CC2CCCC2=O)cc1 (stereo not shown) [Loxoprofen] : 102

% Phosphatase Activity (compared to DMSO) PRL-3 reported for this molecule C[C@@H](O)[C@@H]1NC(=O)[C@H](CCCCN)NC(=O)[C@@H](Cc2c[nH]c3ccccc23)NC(=O)[C@H](Cc2ccccc2)NC(=O)[C@@H](NC(=O)[C@H](N)Cc2ccccc2)CSSC[C@@H](C(=O)N[C@H](CO)[C@@H](C)O)NC1=O [Octreotide Acetate] : 93

% Phosphatase Activity (compared to DMSO) PRL-3 reported for this molecule CCOC(=O)[C@H](CCc1ccccc1)N[C@@H](C)C(=O)N1[C@H](C(=O)O)C[C@@H]2CCC[C@@H]21 [Ramipril] : 93

% Phosphatase Activity (compared to DMSO) PRL-3 reported for this molecule COc1ccc(C(=O)c2ccccc2O)c(O)c1 [2,2′-Dihydroxy-4-methoxybenzophenone] : 79

% Phosphatase Activity (compared to DMSO) PRL-3 reported for this molecule Oc1c(Cl)cc(Cl)cc1Sc1cc(Cl)cc(Cl)c1O [Bithionol, reference compound] : 6

% Phosphatase Activity (compared to DMSO) PRL-3 reported for this molecule CN(C)CC(c1ccc(O)cc1)C1(O)CCCCC1 (stereo not shown) [Desvenlafaxine] : 70

% Phosphatase Activity (compared to DMSO) PRL-3 reported for this molecule CCCC1O[C@@H]2C[C@H]3[C@@H]4CCC5=CC(=O)C=C[C@]5(C)[C@H]4[C@@H](O)C[C@]3(C)[C@]2(C(=O)CO)O1 (stereo partly shown) [Budesonide] : 76

% Phosphatase Activity (compared to DMSO) PRL-3 reported for this molecule CC(=O)Nc1nnc(S(N)(=O)=O)s1 [Acetazolamide] : 88

% Phosphatase Activity (compared to DMSO) PRL-3 reported for this molecule CC(=O)OCC[N+](C)(C)C [Acetylcholine Chloride] : 95

% Phosphatase Activity (compared to DMSO) PRL-3 reported for this molecule CC(=O)N[C@@H](CS)C(=O)O [Acetylcysteine] : 70

% Phosphatase Activity (compared to DMSO) PRL-3 reported for this molecule CN1C[C@@H]2C[C@H]1CN2c1cc2c(cc1F)c(=O)c(C(=O)O)cn2C1CC1.CS(=O)(=O)O [Danofloxacin Mesylate] : 146

---

Assignment: determine reported % Phosphatase Activity (compared to DMSO) PRL-2 for the given compounds.
testSystem: recombinant PRL-2 (Homo sapiens, UniProt Q12974)
Construct: 6xHis (N, cleaved yes); made in house; host or cells: E. coli One Shot BL21 Star
Sequence (Q12974 whole entry): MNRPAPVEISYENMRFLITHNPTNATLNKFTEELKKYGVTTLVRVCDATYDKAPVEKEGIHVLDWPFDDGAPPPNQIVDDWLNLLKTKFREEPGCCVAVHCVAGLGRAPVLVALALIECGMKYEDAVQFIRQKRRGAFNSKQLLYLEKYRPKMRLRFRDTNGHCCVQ
method: In vitro phosphatase assay (DiFMUP hydrolysis), PRL-2;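 note: PRL-2 activity read as DiFMUP hydrolysis after 20 min at room temperature with drug, enzyme first pre-reduced at 4 °C for 20 min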
Assay type: biochemical
runParameters: FDA-approved drug screen; compared to DMSO
Structures can show the parent of a compound that is named as a salt.
The figure you give is taken to be in %; do not add the unit.

Summary line: CNC(=O)c1ccc(N2C(=S)N(c3ccc(C#N)c(C(F)(F)F)c3)C(=O)C2(C)C)cc1F [Enzalutamide (MDV3100)] , recombinant PRL-2 (Homo sapiens, UniProt Q12974), reported % Phosphatase Activity (compared to DMSO) PRL-2 = 89

Summary line: Oc1cc(O)c(Cl)cn1 , recombinant PRL-2 (Homo sapiens, UniProt Q12974), reported % Phosphatase Activity (compared to DMSO) PRL-2 = 97

Summary line: O=NN(CCCl)C(=O)NC1CCCCC1 , recombinant PRL-2 (Homo sapiens, UniProt Q12974), reported % Phosphatase Activity (compared to DMSO) PRL-2 = 105

Summary line: CC(C)N(CCC(C(N)=O)(c1ccccc1)c1ccccn1)C(C)C (centres unmarked) [Disopyramide Phosphate] , recombinant PRL-2 (Homo sapiens, UniProt Q12974), reported % Phosphatase Activity (compared to DMSO) PRL-2 = 107

Summary line: C[C@]12CC[C@H](O)CC1=CC[C@@H]1[C@@H]2CC[C@]2(C)C(n3cnc4ccccc43)=CC[C@@H]12 , recombinant PRL-2 (Homo sapiens, UniProt Q12974), reported % Phosphatase Activity (compared to DMSO) PRL-2 = 98

Summary line: O=C(O)c1ccc(-n2nc(-c3ccccc3O)nc2-c2ccccc2O)cc1 , recombinant PRL-2 (Homo sapiens, UniProt Q12974), reported % Phosphatase Activity (compared to DMSO) PRL-2 = 104

Summary line: CCOC(=O)[N-]c1cn(N2CCOCC2)n[o+]1 , recombinant PRL-2 (Homo sapiens, UniProt Q12974), reported % Phosphatase Activity (compared to DMSO) PRL-2 = 110

Summary line: CCC/N=C1\S/C(=C\c2ccc(OC[C@H](O)CO)c(Cl)c2)C(=O)N1c1ccccc1C , recombinant PRL-2 (Homo sapiens, UniProt Q12974), reported % Phosphatase Activity (compared to DMSO) PRL-2 = 79

Summary line: NC(=O)c1ncn([C@@H]2O[C@H](CO)[C@@H](O)[C@H]2O)n1 , recombinant PRL-2 (Homo sapiens, UniProt Q12974), reported % Phosphatase Activity (compared to DMSO) PRL-2 = 108

Summary line: CN1CCN(c2ccc(C(=O)Nc3n[nH]c4ccc(Cc5cc(F)cc(F)c5)cc34)c(NC3CCOCC3)c2)CC1 [Entrectinib (RXDX-101)] , recombinant PRL-2 (Homo sapiens, UniProt Q12974), reported % Phosphatase Activity (compared to DMSO) PRL-2 = 282

Summary line: O=C(c1ccccc1)c1ccc2n1CCC2C(=O)O (centres unmarked) , recombinant PRL-2 (Homo sapiens, UniProt Q12974), reported % Phosphatase Activity (compared to DMSO) PRL-2 = 97

Summary line: C[C@@H](Oc1cc(-c2cnn(C3CCNCC3)c2)cnc1N)c1c(Cl)ccc(F)c1Cl , recombinant PRL-2 (Homo sapiens, UniProt Q12974), reported % Phosphatase Activity (compared to DMSO) PRL-2 = 119

Summary line: CCOc1nc2cccc(C(=O)O)c2n1Cc1ccc(-c2ccccc2-c2nc(=O)o[nH]2)cc1 , recombinant PRL-2 (Homo sapiens, UniProt Q12974), reported % Phosphatase Activity (compared to DMSO) PRL-2 = 130

Summary line: O=C1[C@H](CC[C@H](O)c2ccc(F)cc2)[C@@H](c2ccc(O)cc2)N1c1ccc(F)cc1 , recombinant PRL-2 (Homo sapiens, UniProt Q12974), reported % Phosphatase Activity (compared to DMSO) PRL-2 = 82

Summary line: COc1cc(Nc2ncc3c(n2)-c2ccc(Cl)cc2C(c2c(F)cccc2OC)=NC3)ccc1C(=O)O , recombinant PRL-2 (Homo sapiens, UniProt Q12974), reported % Phosphatase Activity (compared to DMSO) PRL-2 = 96

Summary line: C[C@]12CCC(=O)C=C1CC[C@@H]1[C@@H]2[C@@H](O)C[C@@]2(C)[C@H]1CC[C@]2(O)C(=O)CO [Hydrocortisone] , recombinant PRL-2 (Homo sapiens, UniProt Q12974), reported % Phosphatase Activity (compared to DMSO) PRL-2 = 91

Summary line: CN(C)[C@@H]1C(O)=C(C(N)=O)C(=O)[C@@]2(O)C(O)=C3C(=O)c4c(O)ccc(Cl)c4[C@@H](O)[C@H]3C[C@@H]12 [Demeclocycline HCl] , recombinant PRL-2 (Homo sapiens, UniProt Q12974), reported % Phosphatase Activity (compared to DMSO) PRL-2 = 86

Summary line: CCOC(=O)CCC(=O)O[C@H]1[C@H](O[C@@H]2[C@@H](C)[C@H](O[C@H]3C[C@@](C)(OC)[C@@H](O)[C@H](C)O3)[C@@H](C)C(=O)O[C@H](CC)[C@@](C)(O)[C@H](O)[C@@H](C)C(=O)[C@H](C)C[C@@]2(C)O)O[C@H](C)C[C@@H]1N(C)C [Erythromycin Ethylsuccinate] , recombinant PRL-2 (Homo sapiens, UniProt Q12974), reported % Phosphatase Activity (compared to DMSO) PRL-2 = 82

Summary line: O=C(N[C@H](CO)[C@H](O)c1ccc([N+](=O)[O-])cc1)C(Cl)Cl , recombinant PRL-2 (Homo sapiens, UniProt Q12974), reported % Phosphatase Activity (compared to DMSO) PRL-2 = 80

Summary line: O=C1O[C@H](CO)[C@@H](O)[C@H](O)[C@H]1O , recombinant PRL-2 (Homo sapiens, UniProt Q12974), reported % Phosphatase Activity (compared to DMSO) PRL-2 = 98

Summary line: CCC(=O)O[C@]1(C(=O)SCF)[C@H](C)C[C@H]2[C@@H]3C[C@H](F)C4=CC(=O)C=C[C@]4(C)[C@@]3(F)[C@@H](O)C[C@@]21C [Fluticasone propionate] , recombinant PRL-2 (Homo sapiens, UniProt Q12974), reported % Phosphatase Activity (compared to DMSO) PRL-2 = 92

Summary line: CC(C)(S)[C@@H](N)C(=O)O , recombinant PRL-2 (Homo sapiens, UniProt Q12974), reported % Phosphatase Activity (compared to DMSO) PRL-2 = 100

Summary line: Cc1ccc(Nc2nccc(N(C)c3ccc4c(C)n(C)nc4c3)n2)cc1S(N)(=O)=O , recombinant PRL-2 (Homo sapiens, UniProt Q12974), reported % Phosphatase Activity (compared to DMSO) PRL-2 = 100

Summary line: COc1ccc2c(c1)C(=O)N(CCc1ccc(S(=O)(=O)NC(=O)NC3CCCCC3)cc1)C(=O)C2(C)C , recombinant PRL-2 (Homo sapiens, UniProt Q12974), reported % Phosphatase Activity (compared to DMSO) PRL-2 = 86

Summary line: COc1cccc2c1C(=O)c1c(O)c3c(c(O)c1C2=O)C[C@@](O)(C(=O)CO)C[C@@H]3O[C@H]1C[C@H](N)[C@@H](O)[C@H](C)O1 [Epirubicin HCl] , recombinant PRL-2 (Homo sapiens, UniProt Q12974), reported % Phosphatase Activity (compared to DMSO) PRL-2 = 90

Summary line: CCN(CC)C(=O)/C(C#N)=C/c1cc(O)c(O)c([N+](=O)[O-])c1 , recombinant PRL-2 (Homo sapiens, UniProt Q12974), reported % Phosphatase Activity (compared to DMSO) PRL-2 = 87

Summary line: Cc1nccn1CC1CCc2c(c3ccccc3n2C)C1=O.Cl (centres unmarked) [Ondansetron HCl] , recombinant PRL-2 (Homo sapiens, UniProt Q12974), reported % Phosphatase Activity (compared to DMSO) PRL-2 = 108

Summary line: C[N+](C)(C)C[C@H](O)CC(=O)[O-] , recombinant PRL-2 (Homo sapiens, UniProt Q12974), reported % Phosphatase Activity (compared to DMSO) PRL-2 = 103

Summary line: NC[C@@H]1O[C@H](O[C@H]2[C@@H](O)[C@H](O[C@@H]3[C@@H](O)[C@H](N)C[C@H](N)[C@H]3O[C@H]3O[C@H](CN)[C@@H](O)[C@H](O)[C@H]3N)O[C@@H]2CO)[C@H](N)[C@@H](O)[C@@H]1O.O=S(=O)(O)O [Neomycin sulfate] , recombinant PRL-2 (Homo sapiens, UniProt Q12974), reported % Phosphatase Activity (compared to DMSO) PRL-2 = 103

Just for reference, paper PMC8119466 is where these values come from.
